Below: compounds with Ki recorded for Metabotropic glutamate receptor 5 (Homo sapiens, UniProt P41594) in separate published works.
The reply should contain only the number, in nM.

Known Ki results, listed for orientation:
In [3]: df
Out[3]:
                          molecularstring  quantity  unittext  measuredresult
0   Cc1ccc(Nc2ncc(-c3cccnc3)c3cccnc23)nc1        Ki        nM              86
1  COc1ccc(-n2cc(C#Cc3ccnc(Cl)c3)nc2C)cc1        Ki        nM              26
2    Cc1cc(C#Cc2cn(CCc3ccccc3)c(C)n2)ccn1        Ki        nM              33

Consider the compound Cc1csc(Nc2ncc(-c3cccc(C(F)(F)F)c3)c3ccc(C)nc23)n1 . State its measured Ki.
51

Quick one: give measured Ki for Cc1cc(Cl)cc(C(=O)Nc2cccc(Cl)n2)n1
34

Retrieve Ki measured for CNc1scnc1C(=O)Nc1cccc(Cl)c1 and print it.
127

Fill in Ki for record Cc1cccc(NC(=O)c2ncsc2Nc2cccnc2)n1
29
